# Tested on: SK-MEL-2
# measurementProtocol: NCI tumour cell line growth inhibition, 48 h
Calls of active or inactive are those of the source. Rule as the data show it: active = GI50 up to about 1.1 µM and inactive = higher.
measurementKind: GI50

{"columns": ["compound", "assayedTarget", "GI50"],
 "data": [
  ["COc1ccc(-c2nc(SCC(=O)NNC(=S)Nc3ccccc3)[nH]c2-c2ccc(OC)cc2)cc1", "SK-MEL-2", "18.4 µM (inactive)"],
  ["NCCCn1c(Cl)nc2ccccc21", "SK-MEL-2", "> 100 µM (inactive)"],
  ["CSC(=S)N(C)c1nc(N(C)C)s[s+]1", "SK-MEL-2", "> 100 µM (inactive)"],
  ["COC(=O)c1oc([N+](=O)[O-])c(Cl)c1Cl", "SK-MEL-2", "12.2 µM (inactive)"],
  ["N#C/C(=C/n1c(=S)[nH]c2ccccc21)C(N)=O", "SK-MEL-2", "> 100 µM (inactive)"]
]}

Q. I'm curious: which GI50 was measured for `COc1cc(Cl)cc(O)c(=O)c1OC` tested on SK-MEL-2?
A. 53.2 µM (inactive)

Q. I'm curious: which GI50 was measured for `O=C1c2ccccc2C(=O)c2c(O)c(NCCNCCO)cc(O)c21` tested on SK-MEL-2?
A. 5.07 µM (inactive)

###

# System: HL-60
# measurementProtocol: NCI tumour cell line growth inhibition, 48 h
Active and inactive are the calls of the source. Cut-off read from the data, not from the text of the source: active = GI50 up to about 1.1 µM and inactive = higher.
Listed here are compounds together with their documented GI50.

Illustrative cases are given below, each with its answer.
{"columns": ["compound", "value"],
 "data": [
  ["COC(=O)c1cc2c3c(c(C(C)=O)c(OC)c2[nH]1)NCC3", "> 50 µM (inactive)"],
  ["CC1=Nc2ccccc2C1C(Cc1ccccc1N)c1c(C)[nH]c2ccccc12 (centres undefined)", "14 µM (inactive)"],
  ["O=[N+]([O-])c1ccc(C[P+](c2ccccc2)(c2ccccc2)c2ccccc2)cc1", "27.2 µM (inactive)"],
  ["C[N+](C)([O-])CCCNc1ccnc2cccc([N+](=O)[O-])c12", "20.2 µM (inactive)"],
  ["CC(=O)O/N=C(/C)c1ccccc1O", "> 100 µM (inactive)"],
  ["S=C(c1c[nH]c2ccccc12)N1CCN(Cc2ccccc2)CC1", "18.5 µM (inactive)"],
  ["COc1cccc(C=C2N=C(c3ccccc3)N(n3c(-c4ccccc4)nc4ccccc4c3=O)C2=O)c1", "25.1 µM (inactive)"],
  ["Oc1ccc([Te]CCNCC[Te]c2ccc(O)cc2)cc1", "5.55 µM (inactive)"]
]}

Now examine the next entry.
Q. I'm curious: which GI50 was measured for `CC(=O)N1C(=O)/C(=C\C(=O)c2ccc(Cl)cc2)c2ccccc21` tested on HL-60?
A. 2.28 µM (inactive)

###

# Test system: SK-OV-3
# measurementProtocol: NCI tumour cell line growth inhibition, 48 h
Activity calls are given as the source filed them. Cut-off read from the data, not from the text of the source: active = GI50 up to about 1.1 µM and inactive = higher.
Respond using exactly one of the listed classes: 1 (active), 0 (inactive)

Previously resolved entries follow.
{"columns": ["compound", "category"],
 "data": [
  ["CC#CC#C/C=C1\\C=CC2(OC=CC2O)O1 (stereo not drawn)", 0],
  ["CC1=CC(=O)CC(C)(C)C1/C=C/C(C)=C/C=C/C(C)=C/C=C/C=C(C)/C=C/C=C(C)/C=C/C1=C(C)CC(O)CC1(C)C (stereo not drawn)", 0],
  ["CC1(C)OC2COC(c3n[nH]c4c(=O)[nH]c(=O)[nH]c34)C2O1 (stereo not drawn)", 0]
]}

Q. Could you please tell me the result logged for CCc1cccc(C(C)C)c1NC(=O)C(=O)C(Cc1nc2ccccc2nc1O)C(=O)OC (stereo not drawn) in this assay?
A. 0

Q. Could you please tell me the result logged for `CC(C)/C(Cl)=N\OC(=O)NNc1ccccc1` in this assay?
A. 0

Q. Could you please tell me the result logged for `CN(C)/C=N\c1cccc2c1NSN2` in this assay?
A. 0

Q. Could you please tell me the result logged for O=C1C=CC2(CCC23C=CC(=O)O3)O1 (stereo not drawn) in this assay?
A. 0

Q. Could you please tell me the result logged for `Cc1nc2[nH]ccn2c(=O)c1CCO` in this assay?
A. 0

Q. Could you please tell me the result logged for `Cc1ccc(NCC(=O)N2CC(=O)Nc3ccccc32)cc1` in this assay?
A. 0
